The values you see were collected from patent US20050080013A1.

- System Under Test: T1, lecithin:cholesterol acyltransferase (LCAT), purified from human plasma (human, UniProt P04180 25-440)
- T1 sequence (looked up): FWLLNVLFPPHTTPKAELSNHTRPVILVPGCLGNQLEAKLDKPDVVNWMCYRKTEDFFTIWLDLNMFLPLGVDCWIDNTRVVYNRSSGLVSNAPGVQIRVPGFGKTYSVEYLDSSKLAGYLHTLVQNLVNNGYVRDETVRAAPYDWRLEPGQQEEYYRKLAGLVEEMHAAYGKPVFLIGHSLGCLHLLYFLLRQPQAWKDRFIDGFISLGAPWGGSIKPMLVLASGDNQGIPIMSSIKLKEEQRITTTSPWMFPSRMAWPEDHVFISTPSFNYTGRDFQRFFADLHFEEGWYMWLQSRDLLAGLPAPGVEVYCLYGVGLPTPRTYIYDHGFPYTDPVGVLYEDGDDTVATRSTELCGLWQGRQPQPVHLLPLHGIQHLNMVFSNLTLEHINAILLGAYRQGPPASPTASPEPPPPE
- Protocol Text: cell-based or functional assay
Non-standard residues stand in square brackets, D forms with d. No end group written: not given here. Aib = CC(C)(N)C(=O)O
Result Type: ACTIVITY (%) LCAT

Here are 8 binders together with their reported answers.
Given the binder PVLDLFRELGNELLEALKQKLK [peptide 9] , write its reported ACTIVITY (%) LCAT.
83%

Given the binder PVLDLFRELLNELLEALKQKLK [peptide 4] , write its reported ACTIVITY (%) LCAT.
93%

Given the binder PVLDFFRELLNE[Aib]LEALKQKLK [peptide 25] , write its reported ACTIVITY (%) LCAT.
51%

Given the binder PVLELFENLLERGLDALQKKLK [peptide 154] , write its reported ACTIVITY (%) LCAT.
39%

Given the binder PVFELFENLLERLLDALQKKLK [peptide 152] , write its reported ACTIVITY (%) LCAT.
50%

Given the binder PVLEFFENLLERLLDALQKKLK [peptide 157] , write its reported ACTIVITY (%) LCAT.
30%

Given the binder Ac-PLLELLKELLEELKQKLK-NH2 [peptide 206] , write its reported ACTIVITY (%) LCAT.
57%

Given the binder Ac-PVLDLLRELLEELKQKLK-NH2 [peptide 191] , write its reported ACTIVITY (%) LCAT.
100%

***
Given the binder LVLDLFRELLNELLEALKQKLK [peptide 59] , write its reported ACTIVITY (%) LCAT.
17%

Given the binder Ac-PALELFKDLLEEFRQRLK-NH2 [peptide 213] , write its reported ACTIVITY (%) LCAT.
42%

Given the binder PVLDEFREKLWE[Aib]WEALKQKLK [peptide 111] , write its reported ACTIVITY (%) LCAT.
0%

Given the binder VVLDLFRELLNELLEALKQKLK [peptide 53] , write its reported ACTIVITY (%) LCAT.
19%

Given the binder Ac-PVLELFKELLEELKQKLK-NH2 [peptide 195] , write its reported ACTIVITY (%) LCAT.
87%

Given the binder Ac-PVLDLFRELLEELKNKLK-NH2 [peptide 196] , write its reported ACTIVITY (%) LCAT.
81%
